biological target: σ2 receptor (σ2R) (Homo sapiens, UniProt Q5BJF2); test: Sigma-2 receptor radioligand binding; settings: Mean ± SEM
Sequence (Q5BJF2 whole entry, species assumed): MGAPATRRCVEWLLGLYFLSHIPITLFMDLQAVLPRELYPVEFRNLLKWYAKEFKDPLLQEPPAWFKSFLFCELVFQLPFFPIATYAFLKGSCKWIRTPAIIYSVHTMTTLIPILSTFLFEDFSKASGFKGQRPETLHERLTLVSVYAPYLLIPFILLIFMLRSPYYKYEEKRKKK
measured metric: σ2R pKi ± SEM

entry smiles	measured metric	measurement
Fc1ccc(CCCCN2CCCN(c3ccc(Cl)cc3)CC2)cc1	σ2R pKi ± SEM	8.07
Fc1ccc(SCCCN2CCCN(c3ccc(Cl)cn3)CC2)cc1	σ2R pKi ± SEM	8.65
Fc1ccc(CCCCN2CCN(c3ccc(Cl)cn3)CC2)cc1	σ2R pKi ± SEM	7.37
Clc1ccc(N2CCN(CCCOc3ccccc3)CC2)cc1	σ2R pKi ± SEM	7.48
O=C(CCCN1CCCN(c2ccccn2)CC1)c1ccc(F)cc1	σ2R pKi ± SEM	7.49
